Target: hS1P1/CHO cells (Homo sapiens (Human))
Sequence (P21453 whole entry): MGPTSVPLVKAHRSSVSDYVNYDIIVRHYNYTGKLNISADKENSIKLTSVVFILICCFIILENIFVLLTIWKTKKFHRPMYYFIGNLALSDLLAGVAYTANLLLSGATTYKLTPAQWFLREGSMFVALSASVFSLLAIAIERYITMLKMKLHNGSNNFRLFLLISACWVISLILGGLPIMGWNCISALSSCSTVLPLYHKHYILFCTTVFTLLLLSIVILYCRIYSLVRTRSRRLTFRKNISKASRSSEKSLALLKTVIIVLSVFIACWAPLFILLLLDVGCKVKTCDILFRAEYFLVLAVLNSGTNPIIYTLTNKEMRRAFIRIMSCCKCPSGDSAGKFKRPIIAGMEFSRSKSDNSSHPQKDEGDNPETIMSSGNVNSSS
Assay: hS1P1 ERK phosphorylation (S1P1 pERK)
Conditions: phosphate examples
Procedure: hS1P1 ERK Phosphorylation (S1P1 pERK) hS1P1/CHO cells were plated into BD Amine 384-well plates the day before the assay. On the day of the assay, growth medium was removed and replaced with serum-free medium (Ham's F-12 Invitrogen) and incubated for 2 hours. […] Cells were lysed in lysis buffer (Perkin Elmer) and phospho-ERK was measured using the SureFire pERK kit (Perkin Elmer) as described by the manufacturer. […]
Item-by-item account of EC50

Here is how some compounds turned out for EC50.
- COMPOUND: "COc1ccc(C[C@@H]2CCc3cc([C@H]4CC[C@](N)(COP(=O)(O)O)C4)ccc3C2)c(C)c1 [compound 546]"
  EC50: "10 to 100 nM"
- COMPOUND: "COc1cccc(/C=C/[C@@H]2CCc3cc([C@H]4CC[C@](N)(COP(=O)(O)O)C4)ccc3C2)c1 [compound 643]"
  EC50: "10 to 100 nM"
- COMPOUND: "CC(C)CSC[C@H]1CCc2cc([C@H]3CC[C@](N)(COP(=O)(O)O)C3)ccc2C1 [compound 509]"
  EC50: "< 10 nM"
- COMPOUND: "CCCCCC[C@H]1COc2cc([C@H]3CC[C@](N)(COP(=O)(O)O)C3)ccc2C1 [compound 424]"
  EC50: "< 10 nM"
- COMPOUND: "CC(C)CSCC[C@H]1CCc2cc([C@H]3CC[C@](N)(COP(=O)(O)O)C3)ccc2C1 [compound 539]"
  EC50: "< 10 nM"

q: // fetch EC50 for CCSCC[C@@H]1CCc2cc([C@H]3CC[C@](N)(COP(=O)(O)O)C3)ccc2C1 [compound 533] ; system: hS1P1/CHO cells (Homo sapiens (Human))
a: < 10 nM

q: // fetch EC50 for CC(C)CCSC[C@H]1CCc2cc([C@H]3CC[C@](N)(COP(=O)(O)O)C3)ccc2C1 [compound 511] ; system: hS1P1/CHO cells (Homo sapiens (Human))
a: < 10 nM

q: // fetch EC50 for COc1ccc(F)c(OC[C@@H]2CCc3cc([C@H]4CC[C@](N)(COP(=O)(O)O)C4)ccc3C2)c1 [compound 486] ; system: hS1P1/CHO cells (Homo sapiens (Human))
a: 10 to 100 nM

q: // fetch EC50 for Cn1cc(COC[C@@H]2CCc3cc([C@H]4CC[C@](N)(COP(=O)(O)O)C4)ccc3C2)cn1 [compound 471] ; system: hS1P1/CHO cells (Homo sapiens (Human))
a: 10 to 100 nM

q: // fetch EC50 for CCCCSC[C@@H]1CCc2cc([C@@H]3CC[C@](N)(COP(=O)(O)O)C3)ccc2C1 [compound 506] ; system: hS1P1/CHO cells (Homo sapiens (Human))
a: < 10 nM

q: // fetch EC50 for C=CCC/C=C/[C@@H]1CCc2cc([C@H]3CC[C@](N)(COP(=O)(O)O)C3)ccc2C1 [compound 639] ; system: hS1P1/CHO cells (Homo sapiens (Human))
a: 10 to 100 nM
